Test system: NCI-H522
Assay Text: NCI tumour cell line growth inhibition, 48 h
The source made the active and inactive calls. Rule as the data show it: active = GI50 up to about 1.1 µM and inactive = higher.
Pick one and only one: Yes for active, No for inactive

                                   compound  category_label
0  CC1=C(N2CC2)C(=O)c2nc3n(c2C1=O)CCC3OC(=O)CCl (stereo not drawn)             Yes

I would be grateful if you could indicate the recorded call for COC(=O)CCC(NC(=S)N/N=C(\C)c1ccccn1)C(=O)OC (stereo not drawn) .
No

* * *

Tested on: MDA-N
Assay Text: NCI tumour cell line growth inhibition, 48 h
Active and inactive are the calls of the source. No stated cut-off is given here; in the data, active = GI50 up to about 1.1 µM and inactive = higher.
Measured GI50 by item

Consider the reported GI50 for these compounds:
>>> print(df.to_string())
                                   compound              result
0  Nn1c(CCCCCCCCc2nnc(COc3ccc(Cl)cc3Cl)n2N)nnc1COc1ccc(Cl)cc1Cl  62.5 µM (inactive)
1                         CC(=O)CSCc1ccccn1  37.8 µM (inactive)
2  O=C1c2cc3c(cc2CC1Br)CCC3 (stereo unspecified)  1.82 µM (inactive)

Supply GI50 value. Item: CNC(=O)N1CN(c2ccccc2)C2(CCN(Cc3ccccc3)CC2)C1=O
29.2 µM (inactive)

Supply GI50 value. Item: CN(C)Cc1cc(C(=O)/C=C/c2c(Cl)cccc2Cl)cc(CN(C)C)c1O
3.67 µM (inactive)

Supply GI50 value. Item: S=c1nc2[nH]c3ccc(Br)cc3c2n[nH]1
16.7 µM (inactive)

Supply GI50 value. Item: COC(=O)C1=C(O)C(C(=O)OC)[C@]2(O)[C@H](C(=O)OC)[C@H]1C[C@@H](c1ccc(O)cc1)[C@H]2C(=O)OC (stereo partly specified)
20.1 µM (inactive)

Supply GI50 value. Item: CNC=O
> 10000 µM (inactive)

meta.source: ChEMBL document CHEMBL1201862
